target desc: HLA-Cw6/ADAMTSL5-Abu on rhHLA-Cw6 expressing cells loaded with ADAM-Abu peptide (human), P10321
property name: IC50 (read off the curve)

Past entries and their recorded results:
binder	IC50 (read off the curve)
CW6B175 (antibody, V domains shown) VH: EVQLVESGGGLVQPGGSLRLSCAASGFTFTNYWMTWVRQAPGKGLEWVANIKQSGSEKYYVDSVKGRFTISRDNAKNSLYLQMNSLRAEDTAVYYCARTLYEWELEPFDYWGQGTLVTVSS VL: SYVLTQPPSVSVAPGQTARITCGGNRIGSKSVHWYQQKPGQAPVLVVFDDSDRPSGIPERFSGSNSGITATLTISRVEAGDEADYYCQVWDSSNDHVVFGGGTKLTVL	0.2 µg/mL
CW6B233 (antibody, V domains shown) VH: QVQLQESGPGLVKPSETLSLTCTVSGNSIRSYYWSWIRQPAGKGLEWIGRIYISGNTNYNPSLKSRVTMSIDTSKNQFSLKLSSVTAADTAVYYCARLSGIDAFDIWGQGTMVTVSS VL: DIQMTQSPSSLSASVGDRVTITCQASQDITNYLNWYQQKPGKAPKLLIYDASNLETGVPSRFSGSGSGTDFTFTISSLQPEDFATYYCQQYDNLPITFGQGTRLEIK	0.2 µg/mL

Proceed to the following item.
Please give the measured IC50 (read off the curve) for this binder: CW6B238 (antibody, V domains shown) VH: QVTLKESGPVLVKPTETLTLTCTVSGFSLNNARMGVSWIRQPPGKALEWLAHMFSSDEKFYRTSLKSRLTISKDTSKSQVVLTMTNMDPVDTATYYCARISLYSSGHDTFDLWGQGTMVTVSS VL: AIQMTQSPSSLSASVGDRVTITCRASQDIRNTLGWYQQKPGKAPNLLIYAASSLQSGVPSRFSGSGSGTDFTLTISSLQPEDFATYYCLQDYDYPLTFGGGTKVEIK 0.2 µg/mL
